The following compounds are shown together with reported viability, T/C values.
System: NCI-H929 complex spheroids, viability % test/control
ASSAY_PROTOCOL: Anticancer human tumor NCI-H929 cell line growth inhibition [RAS];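 further: compound exposure lasted seven days before viability was read; 100% = DMSO vehicle control viability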
CONDITION: second compound 3.16 µM; first compound 0.316 µM; stronger effect = lower value
Excerpt: RAS pathway inhibitors in Combinations in Complex Spheroids A high-throughput screen of multi-cell type tumor spheroids was designed to identify active combinations of RAS pathway inhibitors and targeted small molecules. Complex spheroids include a stromal component modeled by human endothelial cells (HUVEC) and fibroblasts modeled by human mesenchymal stem cells (MSCs). […] Compounds. […] If the clinical Cmax for an agent had not been determined, the highest concentration tested was 10 microM. […]

Use the examples below as a reference point.
COMPOUND	viability, T/C
O=C(c1ccc(F)c(F)c1Nc1ccc(I)cc1F)N1CC(O)([C@@H]2CCCCN2)C1 + C#Cc1c(F)ccc2cc(O)cc(-c3ncc4c(N5CC6CCC(C5)N6)nc(OCC56CCCN5CC(F)C6)nc4c3F)c12	118%
Cc1nc(N2CCC3(CC2)COC(C)C3N)c(CO)nc1Sc1ccnc(N)c1Cl (stereo not given) + C#Cc1c(F)ccc2cc(O)cc(-c3ncc4c(N5CC6CCC(C5)N6)nc(OCC56CCCN5CC(F)C6)nc4c3F)c12	99.5%
CC(Nc1ccc2c(c1)OCCn1cc(N3C(=O)OCC3C(F)F)nc1-2)C(N)=O (stereo not given) + C#Cc1c(F)ccc2cc(O)cc(-c3ncc4c(N5CC6CCC(C5)N6)nc(OCC56CCCN5CC(F)C6)nc4c3F)c12	110%
C[C@@H](NC(=O)c1ncnc(N)c1Cl)c1ncc(C(=O)Nc2cc(C(F)(F)F)c(Cl)cn2)s1 + C#Cc1c(F)ccc2cc(O)cc(-c3ncc4c(N5CC6CCC(C5)N6)nc(OCC56CCCN5CC(F)C6)nc4c3F)c12	82.6%
CC1(O)CCCC1n1c(=O)c(C(F)F)cc2cnc(NC3CCN(S(C)(=O)=O)CC3)nc21 (stereo not given) + C#Cc1c(F)ccc2cc(O)cc(-c3ncc4c(N5CC6CCC(C5)N6)nc(OCC56CCCN5CC(F)C6)nc4c3F)c12	6%

Exam item: Looking for the measured viability, T/C of Nc1ccn(C2OC(CO)C(O)C2(F)F)c(=O)n1 (stereo not given) + C#Cc1c(F)ccc2cc(O)cc(-c3ncc4c(N5CC6CCC(C5)N6)nc(OCC56CCCN5CC(F)C6)nc4c3F)c12 , can you help?
Marked response: 1.67%

Exam item: Note, next up: NC1c2ccccc2OC12CCN(c1cnc3c(N4CCCc5ncccc54)n[nH]c3n1)CC2 (stereo not given) + C#Cc1c(F)ccc2cc(O)cc(-c3ncc4c(N5CC6CCC(C5)N6)nc(OCC56CCCN5CC(F)C6)nc4c3F)c12
Marked response: 99%

Exam item: Note, next up: CC(=O)OC12COC1CC(O)C1(C)C(=O)C(O)C3=C(C)C(OC(=O)C(O)C(NC(=O)OC(C)(C)C)c4ccccc4)CC(O)(C(OC(=O)c4ccccc4)C21)C3(C)C (stereo not given) + C#Cc1c(F)ccc2cc(O)cc(-c3ncc4c(N5CC6CCC(C5)N6)nc(OCC56CCCN5CC(F)C6)nc4c3F)c12
Marked response: 1.37%

Exam item: Note, next up: CCN1CCN(Cc2ccc(Nc3ncc(F)c(-c4cc(F)c5nc(C)n(C(C)C)c5c4)n3)nc2)CC1 + C#Cc1c(F)ccc2cc(O)cc(-c3ncc4c(N5CC6CCC(C5)N6)nc(OCC56CCCN5CC(F)C6)nc4c3F)c12
Marked response: 120%

Exam item: Note, next up: CCC(CC)c1cc(NC2CCC(N)C2)n2nccc2n1 (stereo not given) + C#Cc1c(F)ccc2cc(O)cc(-c3ncc4c(N5CC6CCC(C5)N6)nc(OCC56CCCN5CC(F)C6)nc4c3F)c12
Marked response: 96.4%
